Assay: SAD study in healthy volunteers: PK in plasma, whole blood, red blood cells
Type: in vivo, human
Conditions: human; HV single oral 400 mg (Cohort 5); red blood cells (calculated conc.); geometric mean

COMPOUND | AUC(0-inf)
O=Cc1c(O)cccc1OC[C@@H]1COCCN1C(=O)c1cccnc1CCO [Compound I] | 163000 µg·h/mL

====

Test: SAD study in healthy volunteers: PK in plasma, whole blood, red blood cells
Assay type: in vivo, human
Details: human, whole blood, 100 mg, healthy subjects n=6, single 100 mg; blood; geometric mean; read-out: t½ (converted)

MOL_SMILES | half-life, days
O=Cc1c(O)cccc1OC[C@@H]1COCCN1C(=O)c1cccnc1CCO | 29.1

Source: patent US20250041312A1
